Target: HERG potassium channel (Homo sapiens)
Construct: expressed in transfected cells; host or cells: HEK293S
Sequence (Q12809 whole entry): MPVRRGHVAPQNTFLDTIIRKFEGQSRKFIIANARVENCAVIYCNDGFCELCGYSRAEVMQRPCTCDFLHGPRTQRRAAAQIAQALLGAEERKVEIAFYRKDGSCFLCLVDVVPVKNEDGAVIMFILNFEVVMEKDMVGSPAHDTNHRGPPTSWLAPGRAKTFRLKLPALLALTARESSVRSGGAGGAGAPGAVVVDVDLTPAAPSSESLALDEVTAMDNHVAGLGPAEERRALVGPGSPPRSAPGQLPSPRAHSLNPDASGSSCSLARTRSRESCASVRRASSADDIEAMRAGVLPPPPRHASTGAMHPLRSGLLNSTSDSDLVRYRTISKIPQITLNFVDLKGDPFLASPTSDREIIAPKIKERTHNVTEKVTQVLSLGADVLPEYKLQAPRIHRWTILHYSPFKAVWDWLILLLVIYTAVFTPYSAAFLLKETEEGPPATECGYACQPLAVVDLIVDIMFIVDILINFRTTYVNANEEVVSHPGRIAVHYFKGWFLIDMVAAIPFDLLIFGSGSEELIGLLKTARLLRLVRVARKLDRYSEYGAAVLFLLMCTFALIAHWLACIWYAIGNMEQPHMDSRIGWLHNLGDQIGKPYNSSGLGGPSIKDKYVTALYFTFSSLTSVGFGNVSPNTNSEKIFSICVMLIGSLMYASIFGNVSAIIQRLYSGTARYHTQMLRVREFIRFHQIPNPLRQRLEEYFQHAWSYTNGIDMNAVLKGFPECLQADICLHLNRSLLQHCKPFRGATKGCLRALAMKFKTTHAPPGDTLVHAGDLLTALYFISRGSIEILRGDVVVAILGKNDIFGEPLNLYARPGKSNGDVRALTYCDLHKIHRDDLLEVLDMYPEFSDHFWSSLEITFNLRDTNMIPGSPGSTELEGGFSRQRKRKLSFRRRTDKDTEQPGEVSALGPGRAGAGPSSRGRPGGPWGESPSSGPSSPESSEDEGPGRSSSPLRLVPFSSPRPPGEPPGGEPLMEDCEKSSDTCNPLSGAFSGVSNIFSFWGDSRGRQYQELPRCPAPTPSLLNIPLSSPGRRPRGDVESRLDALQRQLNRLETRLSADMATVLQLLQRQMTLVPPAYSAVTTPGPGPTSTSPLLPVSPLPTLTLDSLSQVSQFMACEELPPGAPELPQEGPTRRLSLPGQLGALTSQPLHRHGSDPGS
Assay: Human dofetilide binding ([3H]-dofetilide, HERG transfected HEK293S cell membranes)
Conditions: TI = Dofetilide Binding Ki [μM] / 5HT4 Binding Ki [nM] × 1000
assayEndpoint: TI (Defetilide/5HT4)

## Input Enter reported TI (Defetilide/5HT4) observed with HERG potassium channel (Homo sapiens) for COCCCN1CCC(CNC(=O)c2cc(Cl)c(N)n3cc(C)nc23)CC1 [Compound B, reference compound]
## Output 1,300

## Input Enter reported TI (Defetilide/5HT4) observed with HERG potassium channel (Homo sapiens) for `Cc1cn2c(N)ccc(C(=O)NCC3CCN(CC(C)C)CC3)c2n1`
## Output 7,800

## Input Enter reported TI (Defetilide/5HT4) observed with HERG potassium channel (Homo sapiens) for `CCc1cn2c(N)c(Cl)cc(C(=O)NCC3CCN(CCC(C)(C)C)CC3)c2n1`
## Output 5,000

## Input Enter reported TI (Defetilide/5HT4) observed with HERG potassium channel (Homo sapiens) for CCCCN1CCC(CNC(=O)c2cc(Cl)c(N)n3cc(C)nc23)CC1 [Compound A, reference compound]
## Output 1,900

## Input Enter reported TI (Defetilide/5HT4) observed with HERG potassium channel (Homo sapiens) for `Cc1cn2c(N)c(Cl)cc(C(=O)NCC3CCN(CC(C)C)CC3)c2n1`
## Output 7,000
